- assay.text: Hepatic microsomal stability, HLM
- Type: in vitro ADME, human
- measurement.conditions: In vitro human liver microsomal stability
outcome.measure: clint

INSERT INTO assay_data (compound, measured_value) VALUES
  ('CNC(=O)c1c[nH]c2ncnc(N[C@@H](c3ccc4c(c3)S(=O)(=O)CCC4)C(C)C)c12', '108.0 µL/min/mg'),
  ('CCNC(=O)c1cc2c(N[C@H](c3ccc4c(c3)OCCO4)C(C)C)ncnc2[nH]1 (single isomer, unassigned) [ASAP-0013827]', '1329.0 µL/min/mg'),
  ('CNC(=O)c1cc2c(N[C@@H](c3ccc4c(c3)S(=O)(=O)CCC4)C(C)C)ncnc2[nH]1 [ASAP-0008685]', '77.0 µL/min/mg'),
  ('Cn1ncc(-c2cc3c(N[C@@H](c4ccc5c(n4)OCCO5)C(C)(C)C)ncnc3[nH]2)c1C#N', '283.0 µL/min/mg'),
  ('CC(C)(C)[C@@H](Nc1ncnc2[nH]c(-c3cnn(CC(N)=O)c3)cc12)c1ccc2c(n1)OCCO2', '42.0 µL/min/mg'),
  ('CC(C)[C@@H](Nc1ncnc2[nH]c(-c3ccc4nnn(C)c4c3)cc12)c1ccc2c(c1)S(=O)(=O)CCC2', '752.0 µL/min/mg'),
  ('CC(C)[C@@H](Nc1ncnc2[nH]c(-c3cnn(CC(=O)N(C)C)c3)cc12)c1ccc2c(c1)S(=O)(=O)CCC2 (racemic) [ASAP-0008668]', '106.0 µL/min/mg');

* * *

- assay.text: in vitro
- Design: Cytotoxicity in iPSC-derived pneumocytes, CC50
- measurement.conditions: human, ipsc-derived pneumocytes; ASAP-0008327-001=ASAP-0011153-001; read-out: 50.0
outcome.measure: CC50

INSERT INTO assay_data (compound, measured_value) VALUES
  ('CNC(=O)c1c[nH]c2ncnc(N[C@H](c3ccc4c(c3)S(=O)(=O)CCC4)C(C)C)c12 (single isomer, unassigned)', '> 50 µM');

* * *

- assay.text: Hepatic microsomal stability, MLM
- Assay type: in vitro ADME
- measurement.conditions: In vitro mouse liver microsomal stability
Entries whose clint is below 50 µL/min/mg take yes; entries at or above 50 µL/min/mg take no.

INSERT INTO results (compound, cat) VALUES
  ('CC(C)[C@H](Nc1ncnc2[nH]c(-c3cnn(CC(N)=O)c3)cc12)c1ccc2c(c1)S(=O)(=O)CCC2 (single isomer, unassigned) [ASAP-0011428]', 'yes'),
  ('CC(C)[C@@H](Nc1ncnc2[nH]c(-c3cnn(CC(=O)N(C)C)c3)cc12)c1ccc2c(c1)OCCO2 [ASAP-0008485]', 'no'),
  ('CC(C)[C@@H](Nc1ncnc2[nH]c(-c3cnn(CC(=O)N(C)C)c3)cc12)c1ccc2c(c1)S(=O)(=O)CCC2 (racemic) [ASAP-0008668]', 'no'),
  ('CC(C)[C@@H](Nc1ncnc2[nH]c(-c3cnn(CCC(N)=O)c3)cc12)c1ccc2c(c1)OCCO2 [ASAP-0008482]', 'no'),
  ('CC(C)[C@H](Nc1ncnc2[nH]c(C(=O)N[C@H]3CCN(C)C3)cc12)c1ccc2c(c1)S(=O)(=O)CCC2 [ASAP-0012334]', 'yes'),
  ('CNCc1cc(-c2cc3c(N[C@H](c4ccc5c(c4)S(=O)(=O)CCC5)C(C)C)ncnc3[nH]2)co1 (single isomer, unassigned) [ASAP-0011169]', 'yes'),
  ('CC(C)[C@H](Nc1ncnc2[nH]c(-c3cnn(CC(=O)N(C)C)c3)cc12)c1ccc2c(c1)OCCO2 (single isomer, unassigned) [ASAP-0013837]', 'yes'),
  ('CC(C)[C@@H](Nc1ncnc2[nH]c(-c3cnn(C)c3)cc12)c1ccc2c(c1)S(=O)(=O)NCC2 [ASAP-0011192]', 'no'),
  ('CC(C)[C@H](Nc1ncnc2[nH]c(-c3cnn(CC(N)=O)c3)cc12)c1ccc2c(c1)OCCO2 [ASAP-0008449]', 'yes'),
  ('CC(C)[C@@H](Nc1ncnc2[nH]c(-c3cnn(C)c3C#N)cc12)c1ccc2c(c1)S(=O)(=O)CCC2 [ASAP-0008651]', 'no'),
  ('CC(C)C(Nc1ncnc2[nH]ccc12)c1ccc2c(c1)NC(=O)CO2 (stereo not drawn) [ASAP-0008431]', 'no'),
  ('CNC(=O)c1cc2c(N[C@@H](c3ccc4c(c3)NC(=O)CO4)C(C)C)ncnc2[nH]1 [ASAP-0011219]', 'yes'),
  ('CNC(=O)c1cc2c(N[C@H](c3ccc4c(c3)S(=O)(=O)CCC4)C(C)C)ncnc2[nH]1 (single isomer, unassigned) [ASAP-0012340]', 'yes'),
  ('CNC(=O)c1cc2c(N[C@@H](c3ccc4c(c3)S(=O)(=O)CCC4)C(C)C)ncnc2[nH]1 [ASAP-0008685]', 'yes'),
  ('CNC(=O)Cn1cc(-c2cc3c(N[C@H](c4ccc5c(c4)S(=O)(=O)CCC5)C(C)C)ncnc3[nH]2)cn1 (single isomer, unassigned) [ASAP-0011171]', 'no'),
  ('CC(C)[C@H](CO)Nc1ncnc2[nH]ccc12 [ASAP-0000453]', 'yes'),
  ('CC(C)[C@@H](Nc1ncnc2[nH]c(-c3cnn(C)c3)cc12)c1ccc2c(c1)S(=O)(=O)CCC2 (single isomer, unassigned) [ASAP-0012329]', 'no'),
  ('CC(C)[C@H](Nc1ncnc2[nH]ccc12)c1ccc2c(c1)S(=O)(=O)CCC2 [ASAP-0008674]', 'no'),
  ('CC(C)(C)[C@H](Nc1ncnc2[nH]c(-c3cnn(CC(N)=O)c3)cc12)c1ccc2c(c1)OCCO2 (single isomer, unassigned) [ASAP-0012330]', 'yes'),
  ('COc1ccc([C@H](CC(=O)O)NC(=O)c2ncnc3[nH]ccc23)cc1 (racemic) [ASAP-0000591]', 'yes'),
  ('CC(C)[C@@H](Nc1ncnc2[nH]c(-c3ccc4nnn(C)c4c3)cc12)c1ccc2c(c1)S(=O)(=O)CCC2 [ASAP-0011201]', 'no'),
  ('CCNC(=O)c1cc2c(N[C@H](c3ccc4c(c3)S(=O)(=O)CCC4)C(C)C)ncnc2[nH]1 (racemic) [ASAP-0008711]', 'no'),
  ('CC(C)(C)[C@@H](Nc1ncnc2[nH]c(-c3cnn(CC(N)=O)c3)cc12)c1ccc2c(n1)OCCO2 [ASAP-0011162]', 'yes'),
  ('CNCc1cc(-c2cc3c(N[C@@H](c4ccc5c(c4)S(=O)(=O)CCC5)C(C)C)ncnc3[nH]2)co1 [ASAP-0011176]', 'no'),
  ('CNCc1cc(-c2cc3c(N[C@@H](c4ccc5c(c4)S(=O)(=O)CCC5)C(C)C)ncnc3[nH]2)co1 [ASAP-0010745]', 'no'),
  ('COc1ccc(C(NC(=O)c2ncnc3[nH]ccc23)C(C)c2nnn[nH]2)cc1 (mixture of isomers) [ASAP-0010744]', 'yes'),
  ('CCNC(=O)c1cc2c(N[C@H](c3ccc4c(c3)OCCO4)C(C)C)ncnc2[nH]1 (single isomer, unassigned) [ASAP-0013827]', 'no');

* * *

The entries below come with measured perc_inhibition_mean values attached.
- target: SARS-CoV-2 nsp3-mac1 (Severe acute respiratory syndrome coronavirus 2, UniProt P0DTD1)
- assay.text: biochemical
- Format: biochemical
- measurement.conditions: SARS-CoV-2 nsp3 macrodomain TR-FRET single point; concentration 49.75 uM
outcome.measure: perc_inhibition_mean (%)

INSERT INTO assay_data (compound, measured_value) VALUES
  ('CN1CCO[C@@H](CNC(=O)c2cnn3ccc(C4CCN(C(=O)c5ccccc5)CC4)cc23)C1 [ASAP-0000391]', -12.021),
  ('C[C@@H](NC(=O)c1cnn2ccc(C3CCN(C(=O)c4ccccc4)CC3)cc12)c1cc[nH]n1 [ASAP-0000407]', -4.99),
  ('O=C(CCN(Cc1cccc(Cl)c1)C(=O)[C@@H]1CC1(F)F)N1CCNCC1 [ASAP-0000408]', -2.073),
  ('O=C(c1c[nH]nn1)N1CCC(c2ccn3ncc(C(=O)N4CCCCC4)c3c2)CC1 [ASAP-0000421]', 14.65),
  ('CN(C[C@H]1CCCN1)C(=O)c1cnn2ccc(C3CCN(C(=O)c4ccccc4)CC3)cc12 [ASAP-0000412]', -7.471),
  ('C[C@@H](Nc1ncnc2[nH]ccc12)c1cnn(CC2CCC2)c1 [ASAP-0000473]', -0.451),
  ('CC(C)[C@@H](CO)[C@@H](Nc1ncnc2[nH]ccc12)C(C)C [ASAP-0000480]', 6.651),
  ('O=C(c1cccnc1S)N1CCC(c2ccn3ncc(C(=O)N4CCCCC4)c3c2)CC1 [ASAP-0000389]', 32.298),
  ('O=C(c1cncc(O)n1)N1CCC(c2ccn3ncc(C(=O)N4CCCCC4)c3c2)CC1 [ASAP-0000382]', 26.617),
  ('CC(C)[C@H]1CNC(=O)CN1c1ncnc2[nH]ccc12 [ASAP-0000428]', 6.836),
  ('C[C@@H](NC(=O)c1ncnc2[nH]ccc12)c1ncc(C(=O)O)c(=O)[nH]1 [ASAP-0000460]', 4.872),
  ('COc1ccccc1C[C@@H](Nc1ncnc2[nH]ccc12)C(C)C [ASAP-0000467]', 31.716),
  ('O=C(c1ccccc1)N1CCC(c2ccn3ncc(C(=O)N4CCn5ncnc5C4)c3c2)CC1 [ASAP-0000404]', -3.769),
  ('O=C(CCN(Cc1cccc(Cl)c1)C(=O)[C@@H]1C[C@@H](O)CN1)N1CCNCC1 [ASAP-0000417]', -3.538),
  ('O=C(CCN(Cc1cccc(Cl)c1)C(=O)c1ncccc1Cl)N1CCNCC1 [ASAP-0000397]', 2.753),
  ('O=C(O)c1ccsc1C(=O)N1CCC(c2ccn3ncc(C(=O)N4CCCCC4)c3c2)CC1 [ASAP-0000360]', 45.022),
  ('CC(C)[C@@H]1C(=O)NCCN1c1ncnc2[nH]ccc12 [ASAP-0000479]', 61.35);
